biological target: Death-associated protein kinase 3 (Homo sapiens); experiment: Competitive binding affinity to DAPK3 (unknown origin) at 10 uM in presence of ATP relative to control
Sequence (O43293 whole entry, looked up): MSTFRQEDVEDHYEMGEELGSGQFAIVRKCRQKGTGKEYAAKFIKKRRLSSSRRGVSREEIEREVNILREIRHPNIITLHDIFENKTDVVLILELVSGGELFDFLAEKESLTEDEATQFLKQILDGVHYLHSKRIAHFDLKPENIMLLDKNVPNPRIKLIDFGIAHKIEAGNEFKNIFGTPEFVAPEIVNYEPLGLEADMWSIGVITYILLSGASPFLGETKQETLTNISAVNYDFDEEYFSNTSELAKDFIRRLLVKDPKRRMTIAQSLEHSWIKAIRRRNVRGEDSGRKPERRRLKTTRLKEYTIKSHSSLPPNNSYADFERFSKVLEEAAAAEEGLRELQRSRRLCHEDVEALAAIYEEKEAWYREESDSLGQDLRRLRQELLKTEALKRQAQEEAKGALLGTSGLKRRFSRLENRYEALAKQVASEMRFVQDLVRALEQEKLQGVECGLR
observable: inhibition

Q: Requested field: inhibition. Item: O=C([C@H]1CC[C@H](Nc2nccc(-n3nnc4ccccc43)n2)CC1)N1CCOCC1
A: 64%

Q: Requested field: inhibition. Item: N[C@H]1CC[C@H](Nc2nccc(-n3nnc4ccccc43)n2)CC1
A: 95%

Q: Requested field: inhibition. Item: CS(=O)(=O)CCCOc1cccc2c1ccn2-c1ccnc(N[C@H]2CC[C@H](C(=O)N3CCC(O)CC3)CC2)n1
A: > 85%

Q: Requested field: inhibition. Item: O[C@H]1CC[C@H](Nc2nccc(-n3ncc4ccccc43)n2)CC1
A: < 50%

Q: Requested field: inhibition. Item: O[C@H]1CC[C@H](Nc2nccc(-n3nnc4ccccc43)n2)CC1
A: 93%

Q: Requested field: inhibition. Item: O[C@H]1CC[C@H](Nc2nccc(-c3n[nH]c4ccccc34)n2)CC1
A: 96%

Q: Requested field: inhibition. Item: O[C@H]1CC[C@H](Nc2nccc(-n3ccc4ccccc43)n2)CC1
A: < 50%

###

target: Mitogen-activated protein kinase kinase kinase kinase 4 (Homo sapiens) (UniProt O95819); assay: Competitive binding affinity to MAP4K4 (unknown origin) at 10 uM in presence of ATP relative to control
Sequence (O95819 2-1239 limits assumed): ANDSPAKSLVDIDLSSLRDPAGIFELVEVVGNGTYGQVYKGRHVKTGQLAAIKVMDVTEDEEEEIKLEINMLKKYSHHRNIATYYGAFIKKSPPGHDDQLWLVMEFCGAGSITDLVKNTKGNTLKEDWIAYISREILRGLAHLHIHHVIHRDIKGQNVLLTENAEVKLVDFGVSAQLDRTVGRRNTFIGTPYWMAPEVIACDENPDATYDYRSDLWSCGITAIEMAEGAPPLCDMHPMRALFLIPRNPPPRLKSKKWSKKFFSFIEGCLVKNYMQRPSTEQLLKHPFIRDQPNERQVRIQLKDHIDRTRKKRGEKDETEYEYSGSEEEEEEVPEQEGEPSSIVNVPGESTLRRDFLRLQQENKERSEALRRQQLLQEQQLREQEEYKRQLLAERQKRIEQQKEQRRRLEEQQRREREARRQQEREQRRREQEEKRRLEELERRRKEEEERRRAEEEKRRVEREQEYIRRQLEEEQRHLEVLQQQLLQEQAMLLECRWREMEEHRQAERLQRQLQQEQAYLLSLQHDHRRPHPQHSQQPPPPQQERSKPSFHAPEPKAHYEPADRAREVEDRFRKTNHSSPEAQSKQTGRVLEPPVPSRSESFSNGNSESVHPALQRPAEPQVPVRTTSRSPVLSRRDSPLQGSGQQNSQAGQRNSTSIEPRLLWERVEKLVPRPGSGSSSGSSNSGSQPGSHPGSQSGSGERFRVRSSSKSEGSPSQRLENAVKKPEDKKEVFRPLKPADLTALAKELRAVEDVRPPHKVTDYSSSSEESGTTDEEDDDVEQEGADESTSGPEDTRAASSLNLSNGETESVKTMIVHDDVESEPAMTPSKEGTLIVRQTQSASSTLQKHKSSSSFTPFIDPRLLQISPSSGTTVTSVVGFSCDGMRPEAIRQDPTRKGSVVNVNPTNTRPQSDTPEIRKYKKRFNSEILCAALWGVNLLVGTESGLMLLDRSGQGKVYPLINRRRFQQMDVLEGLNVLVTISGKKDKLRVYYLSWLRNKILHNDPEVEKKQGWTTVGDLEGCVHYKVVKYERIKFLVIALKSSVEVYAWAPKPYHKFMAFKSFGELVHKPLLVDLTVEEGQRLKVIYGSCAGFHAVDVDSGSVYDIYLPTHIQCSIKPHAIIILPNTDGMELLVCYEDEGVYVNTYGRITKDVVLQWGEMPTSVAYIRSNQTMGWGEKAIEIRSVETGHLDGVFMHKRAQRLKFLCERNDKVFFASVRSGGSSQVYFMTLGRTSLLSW
observable: inhibition (%)
Write the answer as a number in %, unit excluded.

Q: Requested field: inhibition. Item: O[C@H]1CC[C@H](Nc2nccc(-n3ncc4ccccc43)n2)CC1
A: 64

Q: Requested field: inhibition. Item: O[C@H]1CC[C@H](Nc2nccc(-c3n[nH]c4ccccc34)n2)CC1
A: 95

###

Can you tell me inhibition for the items I'm about to list?
molecular target: STE20-like serine/threonine-protein kinase (Homo sapiens); experiment: Competitive binding affinity to SLK (unknown origin) at 10 uM in presence of ATP relative to control

Q: Requested field: inhibition. Item: O[C@H]1CC[C@H](Nc2nccc(-n3ccc4ccccc43)n2)CC1
A: < 50%

Q: Requested field: inhibition. Item: O[C@H]1CC[C@H](Nc2nccc(-n3ncc4ccccc43)n2)CC1
A: < 50%

Q: Requested field: inhibition. Item: O[C@H]1CC[C@H](Nc2nccc(-n3nnc4ccccc43)n2)CC1
A: < 50%

Q: Requested field: inhibition. Item: O=C([C@H]1CC[C@H](Nc2nccc(-n3nnc4ccccc43)n2)CC1)N1CCOCC1
A: < 50%

Q: Requested field: inhibition. Item: O[C@H]1CC[C@H](Nc2nccc(-c3n[nH]c4ccccc34)n2)CC1
A: 99%

Q: Requested field: inhibition. Item: N[C@H]1CC[C@H](Nc2nccc(-n3nnc4ccccc43)n2)CC1
A: < 50%

###

Can you tell me inhibition for the items I'm about to list?
molecular target: cGMP-dependent protein kinase 2 (Homo sapiens) (UniProt Q13237); experiment: Competitive binding affinity to PRKG2 (unknown origin) at 10 uM in presence of ATP relative to control
Sequence (Q13237 whole entry): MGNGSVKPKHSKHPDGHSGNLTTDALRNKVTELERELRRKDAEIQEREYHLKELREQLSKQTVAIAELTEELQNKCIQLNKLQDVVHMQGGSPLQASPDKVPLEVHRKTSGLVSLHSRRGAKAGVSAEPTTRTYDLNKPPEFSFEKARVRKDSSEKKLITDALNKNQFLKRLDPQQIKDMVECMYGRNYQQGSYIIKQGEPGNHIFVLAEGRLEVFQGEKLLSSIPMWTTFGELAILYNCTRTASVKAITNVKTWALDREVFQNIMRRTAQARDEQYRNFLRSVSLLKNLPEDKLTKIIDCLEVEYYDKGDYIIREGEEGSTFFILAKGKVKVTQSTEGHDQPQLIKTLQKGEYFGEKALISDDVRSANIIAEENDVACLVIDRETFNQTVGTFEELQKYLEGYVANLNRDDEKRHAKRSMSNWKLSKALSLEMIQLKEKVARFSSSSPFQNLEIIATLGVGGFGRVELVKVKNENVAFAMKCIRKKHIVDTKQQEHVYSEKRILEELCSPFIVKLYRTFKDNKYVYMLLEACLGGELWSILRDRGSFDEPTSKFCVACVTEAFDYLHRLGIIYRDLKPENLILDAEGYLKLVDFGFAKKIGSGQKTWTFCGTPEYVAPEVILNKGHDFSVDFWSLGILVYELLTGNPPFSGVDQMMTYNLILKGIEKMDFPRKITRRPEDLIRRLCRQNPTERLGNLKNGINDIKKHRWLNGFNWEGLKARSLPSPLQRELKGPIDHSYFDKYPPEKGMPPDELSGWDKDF

Q: Requested field: inhibition. Item: O[C@H]1CC[C@H](Nc2nccc(-n3ncc4ccccc43)n2)CC1
A: < 50%

Q: Requested field: inhibition. Item: O[C@H]1CC[C@H](Nc2nccc(-n3nnc4ccccc43)n2)CC1
A: < 50%

Q: Requested field: inhibition. Item: O[C@H]1CC[C@H](Nc2nccc(-c3n[nH]c4ccccc34)n2)CC1
A: < 50%

Q: Requested field: inhibition. Item: O[C@H]1CC[C@H](Nc2nccc(-n3ccc4ccccc43)n2)CC1
A: < 50%

###

Can you tell me inhibition for the items I'm about to list?
biological target: NT-3 growth factor receptor (Homo sapiens); test: Competitive binding affinity to TRKC (unknown origin) at 10 uM in presence of ATP relative to control

Q: Requested field: inhibition. Item: O[C@H]1CC[C@H](Nc2nccc(-n3nnc4ccccc43)n2)CC1
A: < 50%

Q: Requested field: inhibition. Item: O[C@H]1CC[C@H](Nc2nccc(-n3ncc4ccccc43)n2)CC1
A: < 50%

Q: Requested field: inhibition. Item: O[C@H]1CC[C@H](Nc2nccc(-n3ccc4ccccc43)n2)CC1
A: < 50%

Q: Requested field: inhibition. Item: O[C@H]1CC[C@H](Nc2nccc(-c3n[nH]c4ccccc34)n2)CC1
A: 99%

###

target: Proto-oncogene tyrosine-protein kinase receptor Ret (Homo sapiens); experiment: Competitive binding affinity to RET (unknown origin) at 10 uM in presence of ATP relative to control
observable: inhibition

Q: Record O[C@H]1CC[C@H](Nc2nccc(-n3nnc4ccccc43)n2)CC1 : what is its inhibition with Proto-oncogene tyrosine-protein kinase receptor Ret (Homo sapiens)?
A: < 50%

Q: Record O[C@H]1CC[C@H](Nc2nccc(-c3n[nH]c4ccccc34)n2)CC1 : what is its inhibition with Proto-oncogene tyrosine-protein kinase receptor Ret (Homo sapiens)?
A: 94%

Q: Record O[C@H]1CC[C@H](Nc2nccc(-n3ccc4ccccc43)n2)CC1 : what is its inhibition with Proto-oncogene tyrosine-protein kinase receptor Ret (Homo sapiens)?
A: < 50%

Q: Record O[C@H]1CC[C@H](Nc2nccc(-n3ncc4ccccc43)n2)CC1 : what is its inhibition with Proto-oncogene tyrosine-protein kinase receptor Ret (Homo sapiens)?
A: < 50%

###

system: Rattus norvegicus; test: Cmax in Hanover-Wistar rat at 0.5 mg/kg, iv; type: ADME, organism-based; parameters: dose 0.5 mg/kg, route intravenous; conditions: in vivo
observable: Cmax (ng/mL)
Write the answer as a number in ng/mL, unit excluded.

Q: Requested field: Cmax. Item: CS(=O)(=O)CCCOc1cccc2c1ccn2-c1ccnc(N[C@H]2CC[C@H](C(=O)N3CCC(O)CC3)CC2)n1
A: 2670

###

target: Dual specificity protein kinase CLK1 (Homo sapiens); assay: Competitive binding affinity to CLK1 (unknown origin) at 10 uM in presence of ATP relative to control
Can you tell me inhibition for the items I'm about to list?
Write the answer as a number in %, unit excluded.

Q: Requested field: inhibition. Item: N[C@H]1CC[C@H](Nc2nccc(-n3nnc4ccccc43)n2)CC1
A: 100

Q: Requested field: inhibition. Item: O[C@H]1CC[C@H](Nc2nccc(-n3nnc4ccccc43)n2)CC1
A: 95

Q: Requested field: inhibition. Item: O=C([C@H]1CC[C@H](Nc2nccc(-n3nnc4ccccc43)n2)CC1)N1CCOCC1
A: 87

Q: Requested field: inhibition. Item: O[C@H]1CC[C@H](Nc2nccc(-n3ncc4ccccc43)n2)CC1
A: 93

Q: Requested field: inhibition. Item: O[C@H]1CC[C@H](Nc2nccc(-n3ccc4ccccc43)n2)CC1
A: 91

Q: Requested field: inhibition. Item: O[C@H]1CC[C@H](Nc2nccc(-c3n[nH]c4ccccc34)n2)CC1
A: 100

###

target: UniProt:O15530; experiment: Competitive binding affinity to PDPK1 (unknown origin) at 10 uM in presence of ATP relative to control
Sequence (O15530 whole entry): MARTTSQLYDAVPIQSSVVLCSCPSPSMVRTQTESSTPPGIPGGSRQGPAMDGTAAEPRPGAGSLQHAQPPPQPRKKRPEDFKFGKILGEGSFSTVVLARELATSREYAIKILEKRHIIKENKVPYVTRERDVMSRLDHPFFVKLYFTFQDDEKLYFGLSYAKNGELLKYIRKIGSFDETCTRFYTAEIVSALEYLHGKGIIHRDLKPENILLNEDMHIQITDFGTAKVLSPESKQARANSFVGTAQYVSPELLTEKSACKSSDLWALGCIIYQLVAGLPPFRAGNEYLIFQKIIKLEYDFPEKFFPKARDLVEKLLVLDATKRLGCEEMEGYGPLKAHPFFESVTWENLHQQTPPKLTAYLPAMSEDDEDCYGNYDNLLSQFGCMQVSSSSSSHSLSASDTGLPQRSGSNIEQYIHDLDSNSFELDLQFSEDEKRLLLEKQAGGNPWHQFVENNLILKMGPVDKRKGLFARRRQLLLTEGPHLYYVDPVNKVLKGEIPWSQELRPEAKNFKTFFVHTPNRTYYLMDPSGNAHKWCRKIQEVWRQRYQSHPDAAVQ
observable: inhibition

Q: Requested field: inhibition. Item: O[C@H]1CC[C@H](Nc2nccc(-c3n[nH]c4ccccc34)n2)CC1
A: 97%

Q: Requested field: inhibition. Item: O[C@H]1CC[C@H](Nc2nccc(-n3nnc4ccccc43)n2)CC1
A: < 50%

Q: Requested field: inhibition. Item: O=C([C@H]1CC[C@H](Nc2nccc(-n3nnc4ccccc43)n2)CC1)N1CCOCC1
A: < 50%

Q: Requested field: inhibition. Item: N[C@H]1CC[C@H](Nc2nccc(-n3nnc4ccccc43)n2)CC1
A: < 50%

Q: Requested field: inhibition. Item: O[C@H]1CC[C@H](Nc2nccc(-n3ccc4ccccc43)n2)CC1
A: < 50%

Q: Requested field: inhibition. Item: O[C@H]1CC[C@H](Nc2nccc(-n3ncc4ccccc43)n2)CC1
A: < 50%

###

observable: IC50 (nM)
Write the answer as a number in nM, unit excluded.

Q: Record CC(=O)N[C@H]1CC[C@H](Nc2nccc(-n3nnc4ccccc43)n2)CC1 : what is its IC50 with Cytochrome P450 2C9 (Homo sapiens)?
A: 39

###

molecular target: Tyrosine-protein kinase SYK (Homo sapiens) (UniProt P43405); experiment: Competitive binding affinity to SYK (unknown origin) at 10 uM in presence of ATP relative to control
observable: inhibition

Q: Requested field: inhibition. Item: O[C@H]1CC[C@H](Nc2nccc(-c3n[nH]c4ccccc34)n2)CC1
A: 69%

Q: Requested field: inhibition. Item: O[C@H]1CC[C@H](Nc2nccc(-n3ccc4ccccc43)n2)CC1
A: < 50%

Q: Requested field: inhibition. Item: O=C([C@H]1CC[C@H](Nc2nccc(-n3nnc4ccccc43)n2)CC1)N1CCOCC1
A: < 50%

Q: Requested field: inhibition. Item: O[C@H]1CC[C@H](Nc2nccc(-n3nnc4ccccc43)n2)CC1
A: < 50%

Q: Requested field: inhibition. Item: N[C@H]1CC[C@H](Nc2nccc(-n3nnc4ccccc43)n2)CC1
A: < 50%

Q: Requested field: inhibition. Item: O[C@H]1CC[C@H](Nc2nccc(-n3ncc4ccccc43)n2)CC1
A: < 50%
